Parameter melting point: see the listing below.

Example cases with answers are listed next.
In [3]: df
Out[3]:
                                   compound  endpoint_label         result
0  CC(C)n1nc(-c2c(-c3ccccc3)nc(Cl)c(N)c2Cl)ccc1=O   melting point  186 to 188 °C
1  CCN(CCCc1ccccc1)[C@H]1CC[C@H](c2ccc(O)cc2)CC1   melting point  163 to 166 °C
2  N#Cc1ccc(Oc2ccc(-c3ccc(Oc4ccc(C#N)c(C#N)c4)cc3)cc2)cc1C#N   melting point  230 to 232 °C
3                   OCc1ccc(-c2ccccc2)cc1Cl   melting point    69 to 70 °C
4                         CCCOc1cnc(CO)cc1O   melting point  159 to 160 °C

Shift focus to the following entry.
What does the record list as melting point for C[N+]1([O-])CC(CO)(c2ccccn2)C(=O)c2ccccc21 (stereo not drawn) ? 198 to 200 °C

----------
Endpoint Label: melting point

Example cases with answers are listed next.
In [3]: df
Out[3]:
                                   compound  endpoint_label         result
0  Cn1c(=O)nc(NCCCN2CCN(C(c3ccccc3)c3ccccc3)CC2)c2ccccc21   melting point  121 to 124 °C
1      O=C(C(=O)c1ccc(C(F)(F)F)cc1)c1ccncc1   melting point    70 to 72 °C
2  COC(=O)CC(=O)C[C@@H]1[C@@H](N2C(=O)c3ccccc3C2=O)C(=O)N1C(=O)C(=O)OC   melting point  130 to 132 °C
3  CN1C(C(=O)OC2CCCCC2)=C(O)c2ccccc2S1(=O)=O   melting point         112 °C
4  CS(=O)(=O)Nc1cc(C(c2cc(F)ccc2F)S(=O)(=O)c2ccc(F)c(F)c2)c(Cl)cn1 (stereo not given)   melting point  118 to 120 °C

What does the record list as melting point for CCOC(=O)c1cc2cc(C=CC(=O)c3ccc(C)cc3)cc(C(C)CC)c2oc1=O (stereo not given) ? 155 to 156 °C

Param item: CCC(=O)Nc1nc(-c2cc(C)cc(C)c2)c(-c2ccncc2)s1 291 to 293 °C

Param item: CCOC(=O)c1cn(-c2ccc(F)cc2)c2nc(Cl)c(F)cc2c1=O 230 to 232 °C

Param item: CS(=O)(=O)NCc1ccc2[nH]cc(CC#N)c2c1 106 to 109 °C

Param item: COCOc1ccc(Cl)cc1-c1cc(-c2cccc([N+](=O)[O-])c2)c(C#N)c(N)n1 192 to 193 °C

Param item: NC(=O)c1nc(-c2ccc(Oc3ccc(F)cc3)c(F)c2)cs1 183 °C

Param item: COC(=O)C1=C(C)NC(C)=C(C(=O)CS(=O)(=O)N(C)C)C1c1cccc([N+](=O)[O-])c1 (stereo not given) 154 to 157 °C

----------
Parameter melting point: see the listing below.

>>> df
                                   compound         result
0          CN1CCC(c2cc3ccccc3c(=O)[nH]2)CC1  255 to 257 °C
1  O=C(Nc1c(C(O)(C(F)(F)F)C(F)(F)F)ccc2ccccc12)c1ccc(F)cc1  135 to 136 °C
2  O=C(O)CCn1c(=O)c(=O)[nH]c2cc(C(F)(F)F)c(-n3cccc3)cc21  190 to 192 °C

What does the record list as melting point for CCOC(=O)c1c(C)nn(-c2ccccc2N)c1C ? 59 to 61 °C

Param item: CCCc1c(OCC#CCCCC(=O)O)ccc(C(C)=O)c1O 84 to 86 °C

----------
Parameter melting point: see the listing below.

Example cases with answers are listed next.
>>> print(df.to_string())
                                   molecule  endpoint_label           result
0      COc1cc2c3c(c1)nc(-c1ccccc1)n3CCC2=NO   melting point    235 to 238 °C
1  CS(=O)(=O)N(c1ccc(C(=O)NC2CCN(C3CCCCC3)C2)cc1)S(C)(=O)=O (stereo not drawn)   melting point    176 to 178 °C
2  COc1ccccc1Oc1c(NS(=O)(=O)c2ccc(C(C)(C)C)cc2)nc(-c2ncccn2)nc1OCCOc1ccc(C(C)=O)cc1   melting point    169 to 172 °C
3  O=C(O)CNC(=O)NC(CSC(=O)Nc1ccccc1)Cc1ccccc1 (stereo not drawn)   melting point    179 to 181 °C
4  CC(CO)CCCC(C)C1CCC2C3CC=C4C(C)(C)C(O)CCC4(C)C3CCC12C (stereo not drawn)   melting point    174 to 175 °C
5  CC(=O)N1CCc2nc(Nc3nc(-c4ccccc4)cs3)nc(-c3ccccc3)c2C1   melting point    130 to 132 °C
6  COc1cc2cc(c1Cl)N(C)C(=O)CC(OC(=O)C(C)N(C)C(=O)C(C)C)C1(C)OC1C(C)C1CC(O)(NC(=O)O1)C(OC)C=CC=C(C)C2OC (stereo not drawn)   melting point    176 to 179 °C
7  C=CCN1C2C=C(c3cc4ccccc4s3)CC1CC2 (stereo not drawn)   melting point  60.6 to 62.6 °C
8  CN(C(CCn1c(=O)cc(Cl)[nH]c1=O)C(=O)NO)S(=O)(=O)c1ccc(Oc2cccc(Cl)c2)cc1 (stereo not drawn)   melting point    168 to 170 °C
9             CCn1nc(C)c2c(O)c(C(=O)O)cnc21   melting point    212 to 213 °C

Shift focus to the following entry.
What does the record list as melting point for O=C(c1ccccc1)c1cc(Oc2cc(Cl)cc(Cl)c2)c2c(=O)c3ccccc3sc2c1 ? 160 to 163 °C

----------
Endpoint Label: melting point

Example cases with answers are listed next.
In [3]: df
Out[3]:
                                   compound  endpoint_label         result
0  COCCOc1ccccc1-c1cc2[nH]c3ccc(O)cc3c2c2c1C(=O)NC2=O   melting point  275 to 279 °C
1  CC1(C)Oc2ccc(C#N)cc2[C@@H](NC(=O)Nc2ccccc2)[C@@H]1O (relative stereo)   melting point  226 to 227 °C
2                      N#CCc1cc(Cl)cc(Cl)c1   melting point    31 to 32 °C
3  CCCN(CCC)CC(=O)Nc1ncc(Oc2cc(I)c(OC)cc2C(C)C)c(N)n1   melting point  129 to 131 °C
4          CCOC(=O)c1cnoc1-c1ccc(Cl)c(Cl)c1   melting point  108 to 110 °C
5  Cc1oc(-c2ccccc2)nc1COc1ccc(C(=O)c2ccccc2)c(O)c1   melting point  115 to 116 °C
6  CCCCCCCCCCCCCCCCOC(=O)c1cc(C(=O)OCCCCCCCCCCCCCCCC)cc(S(=O)(=O)Cl)c1   melting point    48 to 50 °C
7  CN1CCC(Oc2cccc(Cn3cnc4cc(-c5ccc(Cl)cc5)sc4c3=O)n2)CC1   melting point  202 to 203 °C

What does the record list as melting point for CN(Cc1cc(C(F)(F)F)cc(C(F)(F)F)c1)C(=O)c1c(-c2ccc(F)cc2)c2c(c(=O)n1C)CCCN2C ? 230 to 232 °C

----------
Endpoint Label: melting point

                                   compound  endpoint_label         result
0                CCCN1C(=O)CC(=O)N(CCC)C1=O   melting point    77 to 80 °C
1  Oc1ccc2c(c1)COc1c-2cc2ccc(O)cc2c1-c1ccc(F)cc1   melting point  229 to 232 °C
2  CC1CCC(C(C)C)C(C(C#Cc2ccc(Cc3ccc(F)cc3)o2)N(O)C(N)=O)C1 (stereo not given)   melting point  154 to 156 °C
3            Nc1cc(-c2cccnc2)nc(-c2ccco2)n1   melting point         233 °C
4  O=C(Cl)[C@@H]1CCCN1S(=O)(=O)c1ccc2ccccc2c1   melting point  107 to 109 °C
5  O=C(CCc1ccc(Cl)cc1Cl)NC1N=C(C2CC2)c2ccccc2N(CC(F)(F)F)C1=O (single isomer, unassigned; (+))   melting point    64 to 66 °C
6  N[C@@H](CSCC1CCN(C(=O)OCc2ccccc2)CC1)C(=O)O   melting point  187 to 190 °C
7  O=C(C1CCCC1)N1c2ccccc2CCC1CN1CCN(c2cccc3[nH]ccc23)CC1 (stereo not given)   melting point  150 to 153 °C

What does the record list as melting point for COc1cc(C(C)C)c(NC(=O)CN2CCN(CCSc3nc4cccc(C(C)=O)c4o3)CC2)c(C(C)C)c1 ? 185 to 186 °C

Param item: COC(=O)N[C@@H](C(=O)O)c1ccccc1 122 to 125 °C

Taken from a melting point compilation (Tetko et al.; mined from patent text by program, amines drawn as free bases though some values may be those of a salt).
